tested on: 233499-124-R-J3-PDC complex spheroid viability; assay: Anticancer human tumor 233499-124-R-J3-PDC patient-derived colon adenocarcinoma cell line growth inhibition [CLK]; settings: second compound 1 µM; first compound 1 µM; active compounds read low;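 further: spheroids exposed to the drug combinations for seven days; percent viability relative to DMSO vehicle control wells taken as 100%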
viability, T/C class ranges: label 0: < 3%; label 1: ≥ 3% and < 50%; label 2: ≥ 50%

Which bin, given its viability, T/C, does Nc1ccccc1NC(=O)c1ccc(CNC(=O)OCc2cccnc2)cc1 + CNC(=O)c1ccc(Nc2nc(OC3CCCC3)c3c(-c4ccc5nc(C)oc5c4)c[nH]c3n2)c(OC)c1 occupy? label 1

Could you place CCc1c2c(nc3ccc(O)cc13)-c1cc3c(c(=O)n1C2)COC(=O)[C@]3(O)CC + CN1CCN(c2cc(C(=O)Nc3cc4cc(-c5cnn(C)c5)ccc4cn3)ccn2)CC1 in its proper category? Many thanks. label 0

Kindly state the category for this molecule: CC1COCCN1c1cc(C2(S(C)(=N)=O)CC2)nc(-c2ccnc3[nH]ccc23)n1 (stereo not given) + CN1CCN(c2cc(C(=O)Nc3cc4cc(-c5cnn(C)c5)ccc4cn3)ccn2)CC1 label 0

Each molecule maps to one class by viability, T/C. Which class for O=C(c1cc(Cc2n[nH]c(=O)c3ccccc23)ccc1F)N1CCN(C(=O)C2CC2)CC1 + CN1CCN(c2cc(C(=O)Nc3cc4cc(-c5cnn(C)c5)ccc4cn3)ccn2)CC1 ? label 1

Assign a bin to CCCS(=O)(=O)Nc1ccc(F)c(C(=O)c2c[nH]c3ncc(-c4ccc(Cl)cc4)cc23)c1F + CNC(=O)c1ccc(Nc2nc(OC3CCCC3)c3c(-c4ccc5nc(C)oc5c4)c[nH]c3n2)c(OC)c1 label 2

The entry to classify is CCCS(=O)(=O)Nc1ccc(F)c(C(=O)c2c[nH]c3ncc(-c4ccc(Cl)cc4)cc23)c1F + CN1CCN(c2cc(C(=O)Nc3cc4cc(-c5cnn(C)c5)ccc4cn3)ccn2)CC1 ; which class holds it? label 0

Sort C=CC(=O)N1CCN(c2nc(=O)n(-c3c(C)ccnc3C(C)C)c3nc(-c4c(O)cccc4F)c(F)cc23)C(C)C1 (stereo not given) + CN1CCN(c2cc(C(=O)Nc3cc4cc(-c5cnn(C)c5)ccc4cn3)ccn2)CC1 into one of the categories. label 0

Any idea which band C=CC(=O)N1CCN(c2nc(=O)n(-c3c(C)ccnc3C(C)C)c3nc(-c4c(O)cccc4F)c(F)cc23)C(C)C1 (stereo not given) + CNC(=O)c1ccc(Nc2nc(OC3CCCC3)c3c(-c4ccc5nc(C)oc5c4)c[nH]c3n2)c(OC)c1 is in? label 2
